- test-protocol: in vivo
- settings: male, rat, po
property: AUC(0-t)

**Query** Field request: AUC(0-t) | item: C[C@H]1Cc2c([nH]c3cc(Cl)c(F)cc23)[C@@]2(N1)C(=O)Nc1ccc(Cl)cc12 [NITD609]
**Result** 29400 to 56500 ng·h/mL

###

- test-protocol: physchem
- settings: pKa^2
property: pKa
Format: numeric value only, no unit, no commentary.

**Query** Field request: pKa | item: C[C@H]1Cc2c([nH]c3cc(Cl)c(F)cc23)[C@@]2(N1)C(=O)Nc1ccc(Cl)cc12
**Result** 10.7

###

- Tested on: P. falciparum strains
- settings: culture-adapted P. falciparum strains incl. drug-resistant strains
pIC50: −log10 of the molar value.
property: pIC50

**Query** Field request: pIC50 | item: C[C@H]1Cc2c([nH]c3cc(Cl)c(F)cc23)[C@@]2(N1)C(=O)Nc1ccc(Cl)cc12 [NITD609]
**Result** 8.85 to 9.30

###

- test-protocol: physchem
- settings: pH 7.4
property: logD
Format: numeric value only, no unit, no commentary.

**Query** Field request: logD | item: C[C@H]1Cc2c([nH]c3cc(Cl)c(F)cc23)[C@@]2(N1)C(=O)Nc1ccc(Cl)cc12
**Result** 4.6
